Catalogue of huEGFR^+ mcl-1^-/- MEF EC50 values
- target-or-system: human Epidermal Growth Factor Receptor (huEGFR) over-expressed in mcl-1-/- mouse embryonic fibroblasts (human, UniProt P00533 25-1210)
- assay-summary: cell-based or functional assay
Only the number, expressed in µM, is required.

binder	huEGFR^+ mcl-1^-/- MEF EC50 (µM)
AbG-AAD (antibody, V domains shown, synthon AAD on reduced interchain Cys) VH: EVQLQESGPGLVKPSQTLSLTCTVSGYSISNDFAWNWIRQLPGKGLEWMGYISYKGNTRYQPSLKSRITISRDTSKNQFFLKLNSVTAADTATYYCVTASRGLPYWGQGTLVTVSS VL: DIQMTQSPSSMSVSVGDRVTITCHSSQDITYNIGWLQQKPGKSFKGLIYHGANLDDGVPSRFSGSGSGTDYTLTISSLQPEDFATYYCVQYDEFPWTFGGGTKLEIKR	0.108

Provide measured huEGFR^+ mcl-1^-/- MEF EC50 value, entry: AbG-ZT (antibody, V domains shown, synthon ZT on reduced interchain Cys) VH: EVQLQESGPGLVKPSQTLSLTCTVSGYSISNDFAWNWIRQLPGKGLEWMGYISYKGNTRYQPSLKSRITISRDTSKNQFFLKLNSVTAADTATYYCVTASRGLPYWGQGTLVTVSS VL: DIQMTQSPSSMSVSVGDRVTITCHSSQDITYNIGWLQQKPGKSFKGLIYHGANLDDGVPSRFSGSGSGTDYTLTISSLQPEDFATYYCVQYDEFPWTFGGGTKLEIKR
0.033

Provide measured huEGFR^+ mcl-1^-/- MEF EC50 value, entry: AbB-KZ (antibody, V domains shown, synthon KZ on reduced interchain Cys) VH: EVQLQESGPGLVKPSQTLSLTCTVSGYSISNDFAWNWIRQPPGKGLEWMGYISYKGNTRYQPSLKSRITISRDTSKNQFFLKLNSVTAADTATYYCVTASRGFPWWGQGTLVTVSS VL: DIQMTQSPSSMSVSVGDRVTITCHSSQDINSNIGWLQQKPGKSFKGLIYHGTNLDDGVPSRFSGSGSGTDYTLTISSLQPEDFATYYCVQYAQFPWTFGGGTKLEIKR
0.055
